# Target: human CB1 receptor (Homo sapiens, UniProt P21554)
# Sequence (P21554 whole entry): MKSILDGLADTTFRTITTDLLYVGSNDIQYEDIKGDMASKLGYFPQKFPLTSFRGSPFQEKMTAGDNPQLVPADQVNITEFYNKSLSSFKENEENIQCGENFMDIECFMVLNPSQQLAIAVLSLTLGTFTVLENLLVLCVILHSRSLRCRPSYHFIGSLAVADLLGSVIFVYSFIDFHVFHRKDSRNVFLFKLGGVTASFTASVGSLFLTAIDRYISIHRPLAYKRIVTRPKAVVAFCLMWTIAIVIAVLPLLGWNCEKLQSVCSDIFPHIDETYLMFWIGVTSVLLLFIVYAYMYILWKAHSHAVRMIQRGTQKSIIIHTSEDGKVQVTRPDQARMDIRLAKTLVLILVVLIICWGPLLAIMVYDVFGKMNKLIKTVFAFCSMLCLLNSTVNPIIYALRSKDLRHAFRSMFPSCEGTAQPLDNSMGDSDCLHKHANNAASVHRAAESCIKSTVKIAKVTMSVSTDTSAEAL
# Assay Notes: GTPγS binding on membranes of CHO cells expressing the human CB1 receptor
# Format: biochemical
# Set-up: expressed in transfected cells; host or cells: CHO cells (G418 selection); membranes
# Condition Details: CHO cell membranes, [35S] GTPγS
Listed below: EC50 values for each entry.
Readout: EC50 (nM)

INSERT INTO measurements (compound, readout, recorded_value) VALUES
  ('CCCCCn1c(=O)n(C(=O)N[C@H](C(N)=O)C(C)(C)C)c2ccccc21 [Example 202]', 'EC50', 20.1),
  ('CC(C)(C)[C@@H](CO)NC(=O)n1c(=O)n(CC2CCOCC2)c2cc(F)ccc21 [Example 301]', 'EC50', 268),
  ('O=C(N[C@H]1CCCc2ccccc21)n1c(=O)n(CC2CCOCC2)c2ccccc21 [Example 276]', 'EC50', 5.8),
  ('O=C(N[C@H]1CCCC[C@@H]1O)n1c(=O)n(CC2CCCCC2)c2ccccc21 [Example 191]', 'EC50', 394),
  ('CC(C)(C)[C@H](NC(=O)n1c(=O)n(CCC2CCC2)c2ccccc21)C(N)=O [Example 217]', 'EC50', 3.2),
  ('CC(C)(C)[C@H](NC(=O)n1c(=O)n(Cc2cccc(F)c2)c2ccccc21)C(N)=O [Example 362]', 'EC50', 106),
  ('CC(C)(C)[C@H](NC(=O)n1c(=O)n(CC2CCCCC2)c2c(F)cccc21)C(N)=O [Example 172]', 'EC50', 7.8),
  ('Cc1ccc2c(c1)n(CC1CCCCC1)c(=O)n2C(=O)N[C@H](C(N)=O)C1CCCCC1 [Example 273]', 'EC50', 244);

---

# Target: UniProtKB P21554
I'd appreciate it if you marked entries T when Ki is lower than 0.5 nM and F when it is not.

INSERT INTO assay_data (compound, assigned_class) VALUES
  ('CC(C)(C)[C@H](NC(=O)n1c(=O)n(CC2CC=C(F)CC2)c2ccccc21)C(N)=O (single isomer, unassigned) [Example 305]', 'T'),
  ('CCCCCn1c(=O)n(C(=O)N[C@H]2CCCc3ccccc32)c2ccccc21', 'F'),
  ('CC(C)(C)[C@H](NC(=O)n1c(=O)n(CC2CCCCC2)c2ccccc21)C(N)=O', 'F'),
  ('CCCCCn1c(=O)n(C(=O)N[C@H](C(N)=O)C(C)C)c2ccccc21', 'F'),
  ('CC(C)(C)[C@H](NC(=O)n1c(=O)n(CC2CCCCC2)c2ccc(Cl)cc21)C(N)=O', 'F'),
  ('CCCCCn1c(=O)n(C(=O)N[C@H](C(N)=O)C(C)(C)C)c2cccnc21', 'F'),
  ('O=C(NCc1ccoc1)n1c(=O)n(CC2CCOCC2)c2ccccc21', 'F'),
  ('CC(C)(C)[C@H](NC(=O)n1c(=O)n(CC2CC=C(F)CC2)c2ccccc21)C(N)=O (some centres unmarked) [Example 304]', 'T');

---

Recorded measurements of EC50, one per entry
# Target: human CB1 receptor (Homo sapiens, UniProt P21554)
# Assay Notes: GTPγS binding on membranes of CHO cells expressing the human CB1 receptor
# Type: biochemical
# Parameters: expressed in transfected cells; host or cells: CHO cells (G418 selection); membranes
# Condition Details: CHO cell membranes, [35S] GTPγS
Readout: EC50 (nM)

INSERT INTO results (compound, measurement_units, bound_operator, recorded_value) VALUES
  ('CCCCCn1c(=O)n(C(=O)N[C@H](C(N)=O)C(C)(C)C)c2cccnc21 [Example 365]', 'nM', '=', 1030),
  ('Cc1nc(C(F)(F)F)c(CNC(=O)n2c(=O)n(CC3CCOCC3)c3ccccc32)s1 [Example 349]', 'nM', '=', 157),
  ('Cc1ccc2c(c1)n(CC1CCCCC1)c(=O)n2C(=O)N[C@H](CC(C)C)C(N)=O [Example 267]', 'nM', '>', 10000),
  ('CC(C)(C)[C@H](NC(=O)n1c(=O)n(CCC(F)(F)F)c2ccccc21)C(N)=O [Example 227]', 'nM', '=', 245);
